- test method notes: Pharmacokinetics in rats following oral administration (Examples 38 and 40)
- particulars: male, Sprague-Dawley, rat, in vivo, po, 25 mg/kg
endpoint: half-life (h)

INSERT INTO assay_data (compound, val) VALUES
  ('Cl.NCC1(CC(=O)O)CCCCC1 [gabapentin, reference compound]', 2.4);

###

- test method notes: Pharmacokinetics in rats following oral administration (Examples 38 and 40)
- particulars: male, Sprague-Dawley, rat, in vivo, 25 mg/kg
endpoint: bioavailability (%)

INSERT INTO results (compound, units, val) VALUES
  ('Cl.NCC1(CC(=O)O)CCCCC1 [gabapentin, reference compound]', '%', 87);

###

- target desc: hPEPT2 (Homo sapiens, UniProt Q16348)
- Sequence (Q16348 1-729): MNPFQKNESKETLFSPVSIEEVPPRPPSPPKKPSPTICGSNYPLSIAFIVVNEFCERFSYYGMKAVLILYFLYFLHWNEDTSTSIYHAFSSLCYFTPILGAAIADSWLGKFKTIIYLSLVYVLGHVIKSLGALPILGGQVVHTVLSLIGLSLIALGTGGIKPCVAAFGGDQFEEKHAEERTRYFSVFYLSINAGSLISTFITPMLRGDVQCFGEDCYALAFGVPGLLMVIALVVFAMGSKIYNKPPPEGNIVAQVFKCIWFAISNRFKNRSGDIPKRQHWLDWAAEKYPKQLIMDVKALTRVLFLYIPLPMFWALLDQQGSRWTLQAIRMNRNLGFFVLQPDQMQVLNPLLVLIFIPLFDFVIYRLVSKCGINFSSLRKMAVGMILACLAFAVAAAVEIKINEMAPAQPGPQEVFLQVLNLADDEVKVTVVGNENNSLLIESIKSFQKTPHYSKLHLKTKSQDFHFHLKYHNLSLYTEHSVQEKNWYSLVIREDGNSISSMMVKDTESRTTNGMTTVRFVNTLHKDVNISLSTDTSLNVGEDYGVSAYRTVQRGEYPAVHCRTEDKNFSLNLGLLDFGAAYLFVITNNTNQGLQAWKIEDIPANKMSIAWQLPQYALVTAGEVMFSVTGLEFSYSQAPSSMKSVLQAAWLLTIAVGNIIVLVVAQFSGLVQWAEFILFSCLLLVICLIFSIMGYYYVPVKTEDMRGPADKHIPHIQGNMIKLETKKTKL
- test method notes: Electrogenic transport in Xenopus oocytes expressing hPEPT2
- Type: cell-based
- particulars: test compound 1 mM, relative to Gly-Sar
Square brackets hold non-standard residues; d marks the D form. Peptide text beside a SMILES is read from it. * marks the point of attachment. Bn = c1ccc(C*)cc1
Entries and their % Max. (Gly-Sar) values follow.
endpoint: % Max. (Gly-Sar)

INSERT INTO measurements (compound, val) VALUES
  ('N[C@@H](CCC(=O)O)C(=O)N[C@H](CSCc1ccccc1)C(=O)O [(34), H-Glu-D-Cys(Bzl)-OH] (H-Glu-[dC](Bn)-OH)', '0%'),
  ('N[C@@H](CC(=O)O)C(=O)N[C@H](CSCc1ccccc1)C(=O)O [(36), H-Asp-D-Cys(Bzl)-OH] (H-Asp-[dC](Bn)-OH)', '0%'),
  ('N[C@@H](CCC(=O)O)C(=O)N[C@H](COCc1ccccc1)C(=O)O [(35), H-Glu-D-Ser(Bzl)-OH] (H-Glu-[dS](Bn)-OH)', '0%'),
  ('N[C@@H](CCC(=O)O)C(=O)N[C@@H](COCc1ccccc1)C(=O)O [(28), H-Glu-Ser(Bzl)-OH] (H-Glu-Ser(Bn)-OH)', '82%'),
  ('N[C@@H](CCC(=O)O)C(=O)N[C@@H](CSCc1ccccc1)C(=O)O [(27), H-Glu-Cys(Bzl)-OH] (H-Glu-Cys(Bn)-OH)', '56%'),
  ('N[C@@H](CC(=O)O)C(=O)N[C@@H](CSCc1ccccc1)C(=O)O [(30), H-Asp-Cys(Bzl)-OH] (H-Asp-Cys(Bn)-OH)', '78%'),
  ('N[C@@H](CC(=O)O)C(=O)N[C@H](COCc1ccccc1)C(=O)O [(37), H-Asp-D-Ser(Bzl)-OH] (H-Asp-[dS](Bn)-OH)', '0%');
